Biological target: Uracil nucleotide/cysteinyl leukotriene receptor (Homo sapiens)
Sequence (Q13304 whole entry): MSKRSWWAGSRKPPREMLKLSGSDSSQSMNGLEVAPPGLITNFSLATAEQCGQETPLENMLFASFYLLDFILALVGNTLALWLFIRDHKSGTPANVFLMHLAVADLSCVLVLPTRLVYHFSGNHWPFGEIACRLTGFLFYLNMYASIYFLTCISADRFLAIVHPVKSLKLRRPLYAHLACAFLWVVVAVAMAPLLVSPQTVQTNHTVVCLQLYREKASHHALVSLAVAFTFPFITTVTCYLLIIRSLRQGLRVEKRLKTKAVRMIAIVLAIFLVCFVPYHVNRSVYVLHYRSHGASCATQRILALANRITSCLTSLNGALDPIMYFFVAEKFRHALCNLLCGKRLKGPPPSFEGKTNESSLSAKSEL
Assay: Displacement of [3H]PSB-12150 from human GPR17 expressed in CHO-K1 cell membranes after 60 mins by competition binding assay
measurement.kind: Ki

chem_smiles=O=C(O)CCc1c(C(=O)O)[nH]c2cc(Cl)cc(Cl)c12 value_measured="2320 nM"
